# MEASURED_ON: Peptide deformylase (Escherichia coli)
# Sequence (Q9JN24 whole entry): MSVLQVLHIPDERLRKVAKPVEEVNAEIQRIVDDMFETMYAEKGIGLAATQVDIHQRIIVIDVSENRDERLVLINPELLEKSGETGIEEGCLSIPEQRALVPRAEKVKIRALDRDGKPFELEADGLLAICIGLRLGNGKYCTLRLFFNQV
Consider the following compounds; for each one, report its pIC50.
Answers are plain numbers, as −log10 of the molar value.

O=CN(O)C[C@@H](CC1CCCC1)C(=O)N1CCCN1C(=O)Nc1ccc(F)cc1 = 8.00
COCC(=O)N1CCCCN1C(=O)[C@H](CC1CCCC1)CN(O)C=O = 6.70
O=C(C[C@@H](CC1CCCC1)C(=O)N1CCCCN1C(=O)c1ccco1)NO = 8.10

Provide pIC50 for all items below, preserving their order.
1. O=CN(O)C[C@@H](CC1CCCC1)C(=O)N1CCCCN1C(=O)Cc1ccccc1
2. O=CN(O)C[C@@H](CC1CCCC1)C(=O)N1CCCN1C(=O)c1cccnc1

[7.22, 6.52]

====

Consider the following molecules; for each one, report its IC50.
# MEASURED_ON: Peptide deformylase (Escherichia coli)
One number for each entry, in nM.

Sample records with IC50:
COc1cccc(NC(=O)N2CCCN2C(=O)[C@H](CC2CCCC2)CN(O)C=O)c1 = 10
O=CN(O)C[C@@H](CC1CCCC1)C(=O)N1CCCN1C(=O)c1ccco1 = 30

# input for lookup
Endpoint output: IC50 of `O=CN(O)C[C@@H](CC1CCCC1)C(=O)N1CCCN1C(=O)Cc1ccccc1` . Value?
30

====

# MEASURED_ON: Peptide deformylase (Escherichia coli, UniProt Q9JN24)
# Sequence (Q9JN24 whole entry): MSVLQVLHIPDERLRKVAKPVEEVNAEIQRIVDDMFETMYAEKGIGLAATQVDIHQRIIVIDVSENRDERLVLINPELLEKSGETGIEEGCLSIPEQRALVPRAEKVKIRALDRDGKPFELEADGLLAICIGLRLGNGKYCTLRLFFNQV
PARAMETER_MEASURED: log10 IC50 (log10 of the value in nM)
All values: log10 IC50 [nM].

Provide log10 IC50 for all items below, preserving their order.
1. O=CN(O)C[C@@H](CC1CCCC1)C(=O)N1CCCN1C(=O)Nc1ccccc1
2. COc1ccc(C(=O)N2CCCCN2C(=O)[C@H](CC2CCCC2)CN(O)C=O)cc1

1.00
2.00

Provide log10 IC50 for all items below, preserving their order.
1. O=CN(O)C[C@@H](CC1CCCC1)C(=O)N1CCCN1C(=O)Nc1ccc(C(F)(F)F)cc1
2. COc1ccccc1NC(=O)N1CCCCN1C(=O)[C@H](CC1CCCC1)CN(O)C=O
3. O=CN(O)C[C@@H](CC1CCCC1)C(=O)N1CCCCN1C(=O)c1ccc(F)cc1
4. O=CN(O)C[C@@H](CC1CCCC1)C(=O)N1CCCCN1C(=O)c1ccccc1
5. O=CN(O)C[C@@H](CC1CCCC1)C(=O)N1CCCN1C(=O)c1ccc(F)cc1
6. COc1ccc(C(=O)N2CCCN2C(=O)[C@H](CC2CCCC2)CN(O)C=O)cc1
7. O=CN(O)C[C@@H](CC1CCCC1)C(=O)N1CCCCN1C(=O)Nc1ccc(C(F)(F)F)cc1
8. COCC(=O)N1CCCN1C(=O)[C@H](CC1CCCC1)CN(O)C=O

1.48
1.00
1.78
2.70
1.30
1.70
0.95
1.78
